Experiment: Stability of liquid pharmaceutical forms (peptide 0.2 %, benzalkonium chloride 0.01 %, water) during storage; single and total impurities
Format: physicochemical
Conditions: stored for 12 months at +4° C.
Non-standard residues stand in square brackets, D forms with d. No end group written: not given here. Hyp = O=C(O)[C@@H]1C[C@@H](O)CN1
So I've got a bunch of substances here, and I need their Single impurities values.
Expressed in %, but write only the number.

Problem: Single impurities for Thr-Lys-Pro-Arg-Pro-Gly-Pro (TKPRPGP; not fully specified; printed as Thr-Lys-Pro-Arg-Pro-Gly-Pro) [heptopeptide “Selank”, a synthetic analogue of the endogenous peptide tuftsin, reference compound] ?
Solution: 1

Problem: Single impurities for Thr-Lys-Hyp-Arg-Hyp-Gly-Hyp (TK[Hyp]R[Hyp]G[Hyp]) [peptide according to the invention containing hydroxyproline] ?
Solution: 0.09

Problem: Single impurities for Thr-Lys-Pro-Arg-Pro (TKPRP; not fully specified; printed as Thr-Lys-Pro-Arg-Pro) [pentapeptide described in RU2507212, comparison peptide, reference compound] ?
Solution: 0.8

Problem: Single impurities for Thr-Lys-Hyp-Arg-Hyp (TK[Hyp]R[Hyp]) [pentapeptide of the invention containing hydroxyproline] ?
Solution: 0.07

Problem: Single impurities for Thr-Lys-Pro-Arg-Pro-Phe (TKPRPF; not fully specified; printed as Thr-Lys-Pro-Arg-Pro-Phe) [hexapeptide described in RU2507212, comparison peptide, reference compound] ?
Solution: 0.9

Problem: Single impurities for Thr-Lys-Hyp-Arg-Hyp-Phe (TK[Hyp]R[Hyp]F) [hexapeptide of the invention containing hydroxyproline] ?
Solution: 0.1

====

Experiment: Stability of liquid pharmaceutical forms (peptide 0.2 %, benzalkonium chloride 0.01 %, water) during storage; single and total impurities
Format: physicochemical
Conditions: stored for 1 month at +25° C.; solution 0.2 mass % peptide, 0.01 mass % benzalkonium chloride
No end group written: not given here.
So I've got a bunch of substances here, and I need their Total impurities values.
Expressed in %, but write only the number.

Problem: Total impurities for Thr-Lys-Pro-Arg-Pro (TKPRP; not fully specified; printed as Thr-Lys-Pro-Arg-Pro) [pentapeptide described in RU2507212, comparison peptide, reference compound] ?
Solution: 0.54

Problem: Total impurities for Thr-Lys-Pro-Arg-Pro-Phe (TKPRPF; not fully specified; printed as Thr-Lys-Pro-Arg-Pro-Phe) [hexapeptide described in RU2507212, comparison peptide, reference compound] ?
Solution: 0.19

====

Assay: Stability of liquid pharmaceutical forms (peptide 0.2 %, benzalkonium chloride 0.01 %, water) during storage; single and total impurities
Type: physicochemical
Conditions: stored for 24 months at +4° C.
Non-standard residues stand in square brackets, D forms with d. No end group written: not given here. Hyp = O=C(O)[C@@H]1C[C@@H](O)CN1
Quantity: Total impurities (%)
Expressed in %, but write only the number.

Problem: Total impurities for Thr-Lys-Pro-Arg-Pro (TKPRP; not fully specified; printed as Thr-Lys-Pro-Arg-Pro) [pentapeptide described in RU2507212, comparison peptide, reference compound] ?
Solution: 1.9

Problem: Total impurities for Thr-Lys-Hyp-Arg-Hyp-Phe (TK[Hyp]R[Hyp]F) [hexapeptide of the invention containing hydroxyproline] ?
Solution: 1.9

Problem: Total impurities for Thr-Lys-Pro-Arg-Pro-Gly-Pro (TKPRPGP; not fully specified; printed as Thr-Lys-Pro-Arg-Pro-Gly-Pro) [heptopeptide “Selank”, a synthetic analogue of the endogenous peptide tuftsin, reference compound] ?
Solution: 3.7
